Dear all, I have gathered published IC50 values for Leucine-rich repeat serine/threonine-protein kinase 2 (Homo sapiens, UniProt Q5S007); the list follows.

Cc1n[nH]c2ncc(-c3cncc(Nc4cccc(N5CCCC5=O)c4)n3)cc12; < 0.5 µM
[2H]C([2H])([2H])c1c2c(nn1C1CCOCC1)OCCCn1nc(Cl)c3cnc(nc31)N2; 0.0096 µM
COC[C@@H](C)Nc1cc(Nc2ccc(C(=O)N3CCOCC3)c3c2OCCO3)nc2[nH]cc(C(F)(F)F)c12; < 0.1 µM
CNc1cc(Nc2ccc(S(=O)(=O)N3CCC(N4CCOCC4)CC3)cc2OC)nc2[nH]cc(C#N)c12; < 0.1 µM
Cc1nn(C2CCNCC2)cc1Nc1ncc(Br)c(NCCCN2CCCCC2=O)n1; 0.3 to 0.6 µM
COc1cc(S(C)(=O)=O)ccc1Nc1cc(NC(C)C)c2cc[nH]c2n1; 0.101 to 0.3 µM
Cc1c(Cl)cccc1-c1ccc2nc(NC(=O)[C@@H]3C[C@@H]3F)cn2c1; 0.101 to 1 µM
O=C(c1ccc(Nc2cc(NC3CC3)c3c(C(F)(F)F)c[nH]c3n2)c2c1CCO2)N1CCC(N2CCOCC2)CC1; < 0.1 µM
[2H]C1([2H])CCn2nc(Cl)c3cnc(nc32)Nc2c(nn(C3CCOCC3)c2C)O1; 0.012 µM
Cc1n[nH]c2ncc(Nc3cncc(Cl)n3)cc12; > 1 µM

Request - read-out IC50 | tested on Leucine-rich repeat serine/threonine-protein kinase 2 (Homo sapiens, UniProt Q5S007) | compound "Cc1cccc(-c2cc(Nc3nn(C)cc3C(F)(F)F)nc3[nH]cc(C#N)c23)n1"
0.393 µM

Give recorded IC50 with Leucine-rich repeat serine/threonine-protein kinase 2 (Homo sapiens, UniProt Q5S007) for the following compound: CC1(Oc2ccc3[nH]nc(-c4cc(N5CCN(C(=O)CCOCCOCCOCCOCCNc6cccc7c6C(=O)N(C6CCC(=O)NC6=O)C7)CC5)ncn4)c3c2)CC1 (stereo not shown)
0.00314 µM

// lookup IC50 | system=Leucine-rich repeat serine/threonine-protein kinase 2 (Homo sapiens, UniProt Q5S007) | key= "CN1CCN(c2ccc(Nc3ncc(Cl)c(NCCCN4CCCOCC4=O)n3)c(C3CC3)c2)CC1"
0.1 to 0.3 µM

Recall the recorded IC50 for "FC1(F)CCN(c2cncc(-c3cnc4[nH]ccc4c3)n2)C1" with Leucine-rich repeat serine/threonine-protein kinase 2 (Homo sapiens, UniProt Q5S007) and state it.
> 0.5 µM

What reported IC50 corresponds to "O=C(Nc1cn2cc(-c3cnccc3Cl)ccc2n1)[C@@H]1C[C@@H]1F" on Leucine-rich repeat serine/threonine-protein kinase 2 (Homo sapiens, UniProt Q5S007)?
0.101 to 1 µM
